# CONDITIONS: buffer; pH 7.4; 200.0 µM
PROPERTY NAME: solubility kinetic

1) O=C1NC(=O)C(Sc2ccccc2[N+](=O)[O-])C(=O)N1; > 42.2 µg/mL
2) O=C(CSc1ncccn1)NC(=O)NCc1ccco1; 40.8 µg/mL
3) COc1ccc(NC(=O)C2C3CCC(O3)C2C(=O)O)cc1OC (stereo unspecified); > 48.2 µg/mL
4) O=C1CCCC(=O)N1c1ccc(NCCOCCO)c([N+](=O)[O-])c1; > 50.6 µg/mL
5) CC(C)C(NC(=O)C1CC(=O)N(Cc2ccccc2)C1)c1nc2ccccc2[nH]1 (stereo unspecified); > 58.6 µg/mL
6) Cc1ccc(C)c(NC(=O)CCOc2ccccc2)c1; 3.7 µg/mL
7) CCOc1ccc(-n2c(C)c(C(C)=O)c3cc(OC(C)=O)ccc32)cc1; < 0.8 µg/mL
8) Cc1ccc(C(=O)N/C(=C\c2cccs2)C(=O)N2CCOCC2)cc1C; > 55.6 µg/mL
9) Cc1csc(NC(=O)c2ccc(Cl)nc2)n1; > 38.1 µg/mL
10) CCOc1ncccc1C(=O)N1CCN(C(=O)c2ccccc2)CC1; > 50.9 µg/mL
11) O=C(CSc1cccc2cccnc12)N/N=C/c1ccncc1; > 48.4 µg/mL

---

Quick list: log10 solubility kinetic per entry.
# CONDITIONS: buffer; pH 7.4; 200.0 µM
PROPERTY NAME: log10 solubility kinetic (log10 of the value in µg/mL)

1. COc1ccc(Nc2nc(N)c(C(=O)c3ccc(F)cc3)s2)cc1; 0.72
2. COC(=O)c1cc(C)nc(Sc2ccccc2NC(C)=O)n1; 1.62
3. CC1(NC(=O)CCc2nc3ccccc3c(=O)[nH]2)CCS(=O)(=O)C1 (stereo not given); 1.69
4. Nc1ccc(C2(c3ccc(N)cc3)OC(=O)c3ccccc32)cc1; 1.51
5. CCN=c1sc(C(=O)Nc2ccccc2)c(C)n1CC; 1.63
6. CCC(NC(=S)NC1CCCCC1)c1ccc(C(C)C)cc1 (stereo not given); 0.20
7. COc1ccccc1/C=C/C(=O)OCC(=O)NC(=O)NC1CCCC1; 1.14
8. CN(C)c1ccc(CNCc2cccnc2)cc1; 1.52
9. CCSc1nc(-c2cccs2)nc2ccccc12; -0.52
10. CN(C)c1ccc(C(=O)NCCCSc2ccccc2)cc1; 0.59
11. CC(C)S(=O)(=O)C/C(N)=N/OS(=O)(=O)c1ccc(Cl)cc1; 1.63
12. CC1CN(C(=O)CCS(=O)(=O)c2ccccc2)CC(C)O1 (stereo not given); 1.64
13. Cc1cccnc1NC(=O)NC(=O)c1ccc(C(C)(C)C)s1; 0.96
14. O=C1OC(c2ccccc2)=N/C1=C\C=C\c1ccco1; 0.30
15. O=C(Nc1ccon1)Nc1cc(Cl)ccc1Cl; 0.15

---

# CONDITIONS: buffer; pH 7.4; 200.0 µM
Returns satisfied if the recorded solubility kinetic is greater than or equal to 30 µg/mL, and not satisfied otherwise.

1) COc1ccccc1N1CCN(c2nc(C)cc(C)c2C#N)CC1; not satisfied
2) COC(=O)c1scc(S(=O)(=O)C(C)(C)C)c1N; not satisfied
3) Nc1ccccc1C(=O)NC1CCCNC1=O (stereo not given); satisfied
4) O=C1CCC([N+](=O)[O-])C(C2CC=CCC2)N1 (stereo not given); satisfied
5) CCOc1ccccc1NC(=O)c1ccc2ccccc2c1; not satisfied
6) CN(C)C(=S)Nc1ccc(S(=O)(=O)N2CCCCC2)cc1; satisfied
7) Nc1nnc(SCC(=O)NC2CCCCCC2)s1; satisfied
8) CCC(NC(=S)NCc1ccc(F)cc1)c1ccccc1 (stereo not given); not satisfied
9) O=C(COC(=O)c1ccc2ccccc2n1)Nc1ccccc1F; not satisfied
10) O=C(Nc1cccnc1Cl)c1noc2c1CCc1ccccc1-2; not satisfied
11) COc1ccc(C(=O)NCC(=O)OCC(=O)N2CCc3ccccc32)cc1; not satisfied
12) Cc1nc2ccccn2c1-c1csc(Nc2ccc(C(=O)O)cc2)n1; not satisfied
13) COc1ccc(NC(=S)N2CCCCC2c2cccnc2)cc1 (stereo not given); satisfied
14) CCSc1ccccc1C(=O)N=C1NC(=O)CC2C(=O)NCCN12 (stereo not given); not satisfied
15) OCc1nc2ccccc2n1Cc1ccc(Cl)cc1; not satisfied
16) COc1ccc(CNCC(O)(c2ccccc2)c2ccccc2)cc1; satisfied
17) O=c1[nH]c(=S)[nH]c2nc(-c3ccccc3)cnc12; satisfied
18) O=C(OCC(=O)N1CCN(c2ccccc2)CC1)c1ccncc1; satisfied
19) COc1ccc(C(=O)O/N=C(\N)c2ccccn2)cc1; satisfied
20) CCS(=O)(=O)c1ccc(O)c(NC(=O)CCCC(=O)O)c1; satisfied
21) Cc1cc(N2CCOCC2)nc2ccc(Cl)cc12; not satisfied
22) Cn1c(C2=C(O)CN(Cc3ccccc3)C2=N)[n+](C)c2ccccc21.[Cl-]; satisfied
23) CCCCn1c(C)c(C(=O)O)c2cc(OC)c3ccccc3c21; not satisfied
24) CCOC(=O)c1cc(C)n(-c2ccccc2)c1C; not satisfied

Attribution: PubChem BioAssay AID1996
